# TARGET_SYSTEM: UniProt P31651
# METHOD_SUMMARY: [^3H]GABA uptake assay, HEK293 cells expressing mGAT2
# CONDITION: [^3H]GABA uptake; pIC50±SEM
PROPERTY_MEASURED: IC50 (µM)

CCOC(=O)C1CCCN(CCOC(c2ccc(C=O)cc2)(c2ccc(OC)cc2)c2ccc(OC)cc2)C1 (racemic) = 26.9

I = CCOC(=O)C1CCCN(CCOC(c2ccc(OC)cc2)(c2ccc(OC)cc2)c2ccc3nccn3c2)C1 (racemic)
II = CCOC(=O)C1CCCN(CCOC(c2ccc(COC)cc2)(c2ccc(COC)cc2)c2ccc(OC)cc2)C1 (racemic)
III = CCOC(=O)CCNCc1ccc(C(OCCN2CCCC(C(=O)OCC)C2)(c2ccc(OC)cc2)c2ccc(OC)cc2)cc1 (racemic)
Reorder the items by IC50, least to greatest. Thanks in advance for listing the labels in the requested order. I, III, II

====

# TARGET_SYSTEM: mGAT3 (Mus musculus)
# Construct: expressed in transfected cells; host or cells: HEK293
# Sequence (P31649 whole entry): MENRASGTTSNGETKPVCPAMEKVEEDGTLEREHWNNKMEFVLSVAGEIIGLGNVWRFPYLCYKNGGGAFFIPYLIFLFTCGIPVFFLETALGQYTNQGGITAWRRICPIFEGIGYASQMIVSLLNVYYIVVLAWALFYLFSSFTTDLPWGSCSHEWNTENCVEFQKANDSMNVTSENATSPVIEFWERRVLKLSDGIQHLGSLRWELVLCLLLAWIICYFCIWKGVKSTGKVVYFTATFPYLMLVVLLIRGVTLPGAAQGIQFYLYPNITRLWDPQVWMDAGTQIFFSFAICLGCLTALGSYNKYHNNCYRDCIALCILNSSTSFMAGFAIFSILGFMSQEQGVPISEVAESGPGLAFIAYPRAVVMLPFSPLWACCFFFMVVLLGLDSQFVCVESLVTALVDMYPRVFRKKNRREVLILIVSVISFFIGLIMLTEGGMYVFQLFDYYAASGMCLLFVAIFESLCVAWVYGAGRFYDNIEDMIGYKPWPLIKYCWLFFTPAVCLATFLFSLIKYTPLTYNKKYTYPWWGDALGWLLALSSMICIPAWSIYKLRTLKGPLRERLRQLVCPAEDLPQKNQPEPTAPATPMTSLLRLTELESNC
# METHOD_SUMMARY: [^3H]GABA uptake assay, HEK293 cells expressing mGAT3
# Format: cell-based
# CONDITION: HEK293; in presence of 100 μM compound
PROPERTY_MEASURED: remaining activity at 100 µM (%)

COc1ccc(C(OCCN2CCCC(C(=O)O)C2)(c2ccc(CNc3ccc(C(=O)O)cc3)cc2)c2ccc(OC)cc2)cc1 (racemic) = 96
COCc1ccc(C(OCCN2CCCC(C(=O)O)C2)(c2ccc(COC)cc2)c2ccc(COC)cc2)cc1 (racemic) = 68.3

I = COc1ccc(C(OCCN2CCCC(C(=O)O)C2)(c2ccc(CNCC(=O)O)cc2)c2ccc(OC)cc2)cc1 (racemic)
II = CCOC(=O)C1CCCN(CCOC(c2ccc(CNC3(C(=O)OCC)CC3)cc2)(c2ccc(OC)cc2)c2ccc(OC)cc2)C1 (racemic)
Of I and II , which shows the smaller remaining activity at 100 µM value? API: response body contains the label of the selected item. II
(II: 58.8%, I: 90.9%)

====

# TARGET_SYSTEM: mGAT2 (Mus musculus)
# Construct: expressed in transfected cells; host or cells: HEK293
# METHOD_SUMMARY: [^3H]GABA uptake assay, HEK293 cells expressing mGAT2
# Type: cell-based
# CONDITION: HEK293; in presence of 100 μM compound
PROPERTY_MEASURED: remaining activity at 100 µM (%)

CCOC(=O)c1ccc(C(OCCN2CCCC(C(=O)OCC)C2)(c2ccc(OC)cc2)c2ccc(OC)cc2)cc1 (racemic) = 87.3
COc1ccc(C(OCCN2CCCC(C(=O)O)C2)(c2ccc(CNCC(=O)O)cc2)c2ccc(OC)cc2)cc1 (racemic) = 96.1
CCOC(=O)C1CCCN(CCOC(c2ccc(OC)cc2)(c2ccc(OC)cc2)c2ccc(S(=O)(=O)N(C)C)cc2)C1 (racemic) = 73.2
COc1ccc(C(OCCN2CCCC(C(=O)O)C2)(c2ccc(CNC(C)(C)C(=O)O)cc2)c2ccc(OC)cc2)cc1 (racemic) = 77
COc1ccc(C(OCCN2CCCC(C(=O)O)C2)(c2ccc(CO)cc2)c2ccc(OC)cc2)cc1 (racemic) = 91.6
COc1ccc(C(OCCN2CCCC(C(=O)O)C2)(c2ccc(C=O)cc2)c2ccc(OC)cc2)cc1 (racemic) = 66.3
CCOC(=O)C1CCCN(CCOC(c2ccc(CNc3ccc(C(=O)O)cc3)cc2)(c2ccc(OC)cc2)c2ccc(OC)cc2)C1 (racemic) = 73.5
COCc1ccc(C(OCCN2CCCC(C(=O)O)C2)(c2ccc(COC)cc2)c2ccc(COC)cc2)cc1 (racemic) = 72.6
CCOC(=O)C1CCCN(CCOC(c2ccc(OC)cc2)(c2ccc(OC)cc2)c2ccc(C(C)=O)cc2)C1 (racemic) = 66.4
COc1ccc(C(OCCN2CCCC(C(=O)O)C2)(c2ccc(OC)cc2)c2ccc3nccn3c2)cc1 (racemic) = 72.9

====

# TARGET_SYSTEM: mGAT2 (Mus musculus, UniProt P31651)
# Construct: expressed in transfected cells; host or cells: HEK293
# Sequence (P31651 whole entry): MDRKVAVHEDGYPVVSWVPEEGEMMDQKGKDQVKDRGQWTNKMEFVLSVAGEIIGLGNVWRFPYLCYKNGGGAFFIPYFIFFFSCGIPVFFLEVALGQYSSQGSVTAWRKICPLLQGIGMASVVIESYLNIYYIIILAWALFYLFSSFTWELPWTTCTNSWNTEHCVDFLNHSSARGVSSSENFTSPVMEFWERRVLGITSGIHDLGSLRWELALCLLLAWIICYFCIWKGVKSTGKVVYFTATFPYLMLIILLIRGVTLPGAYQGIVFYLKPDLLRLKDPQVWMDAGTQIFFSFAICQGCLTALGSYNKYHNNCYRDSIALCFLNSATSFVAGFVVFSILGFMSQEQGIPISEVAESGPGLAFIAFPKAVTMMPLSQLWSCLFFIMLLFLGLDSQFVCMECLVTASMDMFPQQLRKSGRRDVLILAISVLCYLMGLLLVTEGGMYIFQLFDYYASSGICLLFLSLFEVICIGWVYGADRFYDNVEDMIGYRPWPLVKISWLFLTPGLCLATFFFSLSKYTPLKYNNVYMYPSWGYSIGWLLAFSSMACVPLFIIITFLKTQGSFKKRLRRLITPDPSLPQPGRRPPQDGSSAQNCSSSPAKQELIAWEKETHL
# METHOD_SUMMARY: [^3H]GABA uptake assay, HEK293 cells expressing mGAT2
# Format: cell-based
# CONDITION: HEK293; in presence of 100 μM compound
# Description: For compounds with pIC50 ([^3H]GABA uptake assay) or pK i (MS Binding Assays) values close to or above 5.0, these experiments were repeated twice and SEM have been calculated. [^3H]GABA uptake assays: The [^3H]GABA uptake assays were performed according to Kragler et al.33 Cells were grown in 150 cm^2 plates to a confluence of 70–90 % up to passage 25. […] Non‐specific uptake was determined in presence of 10 mM GABA for mGAT1, mGAT3 and mGAT4 or 100 mM GABA for mGAT2, respectively. […]
PROPERTY_MEASURED: remaining activity at 100 µM (%)

Take a look at these entries with their results.
COCc1ccc(C(OCCN2CCCC(C(=O)O)C2)(c2ccc(COC)cc2)c2ccc(OC)cc2)cc1 (racemic) = 55.2
COc1ccc(C(OCCN2CCCC(C(=O)O)C2)(c2ccc(OC)cc2)c2ccc(C(=O)O)cc2)cc1 (racemic) = 85.2
CCOC(=O)C1CCCN(CCOC(c2ccc(CO)cc2)(c2ccc(OC)cc2)c2ccc(OC)cc2)C1 (racemic) = 49.3
COc1ccc(C(OCCN2CCC[C@@H](C(=O)O)C2)(c2ccc(C=O)cc2)c2ccc(OC)cc2)cc1 [(R)‐5 a] = 50.1
COc1ccc(C(OCCN2CCCC(C(=O)O)C2)(c2ccc(C#N)cc2)c2ccc(OC)cc2)cc1 (racemic) = 82.9

P = CCOC(=O)C1CCCN(CCOC(c2ccc(CNC(C)(C)C(=O)OCC)cc2)(c2ccc(OC)cc2)c2ccc(OC)cc2)C1 (racemic)
Q = COc1ccc(C(OCCN2CCCC(C(=O)O)C2)(C(=O)O)c2ccc(OC)cc2)cc1 (racemic)
Lab note: record which item had the higher remaining activity at 100 µM, P or Q . API: response body contains the label of the selected item. Q
(Q: 101%, P: 67.4%)

====

# TARGET_SYSTEM: mGAT2 (Mus musculus, UniProt P31651)
# Construct: expressed in transfected cells; host or cells: HEK293
# METHOD_SUMMARY: [^3H]GABA uptake assay, HEK293 cells expressing mGAT2
# Assay type: cell-based
# CONDITION: HEK293; in presence of 100 μM compound
PROPERTY_MEASURED: remaining activity at 100 µM (%)

Take a look at these entries with their results.
COc1ccc(C(OCCN2CCCC(C(=O)O)C2)(c2ccc(OC)cc2)c2ccc(C(C)=O)cc2)cc1 (racemic) = 64.2
CCOC(=O)C1CCCN(CCOC(c2ccc(COC)cc2)(c2ccc(OC)cc2)c2ccc(OC)cc2)C1 (racemic) = 58.8

1 = COc1ccc(C(OCCN2CCCC(C(=O)O)C2)(c2ccc(CN3CCCC3=O)cc2)c2ccc(OC)cc2)cc1 (racemic)
2 = COc1ccc(C(OCCN2CCCC(C(=O)O)C2)(c2ccc(CNCCCC(=O)O)cc2)c2ccc(OC)cc2)cc1 (racemic)
Of 1 and 2 , which shows the smaller remaining activity at 100 µM value? API: response body contains the label of the selected item. 2

====

# TARGET_SYSTEM: mGAT1 (Mus musculus)
# Construct: expressed in transfected cells; host or cells: HEK293
# METHOD_SUMMARY: [^3H]GABA uptake assay, HEK293 cells expressing mGAT1
# Assay type: cell-based
# CONDITION: HEK293; in presence of 100 μM compound
PROPERTY_MEASURED: remaining activity at 100 µM (%)

CCOC(=O)C1CCCN(CCOC(c2ccc(C#N)cc2)(c2ccc(OC)cc2)c2ccc(OC)cc2)C1 (racemic) = 76.6
CCOC(=O)c1ccc(C(OCCN2CCCC(C(=O)OCC)C2)(c2ccc(OC)cc2)c2ccc(OC)cc2)cc1 (racemic) = 84.6
CCOC(=O)C1CCCN(CCOC(c2ccc(CNC3(C(=O)OCC)CC3)cc2)(c2ccc(OC)cc2)c2ccc(OC)cc2)C1 (racemic) = 75.5
CCOC(=O)C1CCCN(CCOC(C(=O)OC)(c2ccc(OC)cc2)c2ccc(OC)cc2)C1 (racemic) = 89.1
COCc1ccc(C(OCCN2CCCC(C(=O)O)C2)(c2ccc(OC)cc2)c2ccc(OC)cc2)cc1 (racemic) = 67.1
COc1ccc(C(OCCN2CCCC(C(=O)O)C2)(c2ccc(CN3CCCC3=O)cc2)c2ccc(OC)cc2)cc1 (racemic) = 76
CCOC(=O)C1CCCN(CCOC(c2ccc(COC)cc2)(c2ccc(COC)cc2)c2ccc(OC)cc2)C1 (racemic) = 64.9
